system-name: Nav 1.7 (Homo sapiens (Human), UniProt Q15858)
Sequence (Q15858 whole entry): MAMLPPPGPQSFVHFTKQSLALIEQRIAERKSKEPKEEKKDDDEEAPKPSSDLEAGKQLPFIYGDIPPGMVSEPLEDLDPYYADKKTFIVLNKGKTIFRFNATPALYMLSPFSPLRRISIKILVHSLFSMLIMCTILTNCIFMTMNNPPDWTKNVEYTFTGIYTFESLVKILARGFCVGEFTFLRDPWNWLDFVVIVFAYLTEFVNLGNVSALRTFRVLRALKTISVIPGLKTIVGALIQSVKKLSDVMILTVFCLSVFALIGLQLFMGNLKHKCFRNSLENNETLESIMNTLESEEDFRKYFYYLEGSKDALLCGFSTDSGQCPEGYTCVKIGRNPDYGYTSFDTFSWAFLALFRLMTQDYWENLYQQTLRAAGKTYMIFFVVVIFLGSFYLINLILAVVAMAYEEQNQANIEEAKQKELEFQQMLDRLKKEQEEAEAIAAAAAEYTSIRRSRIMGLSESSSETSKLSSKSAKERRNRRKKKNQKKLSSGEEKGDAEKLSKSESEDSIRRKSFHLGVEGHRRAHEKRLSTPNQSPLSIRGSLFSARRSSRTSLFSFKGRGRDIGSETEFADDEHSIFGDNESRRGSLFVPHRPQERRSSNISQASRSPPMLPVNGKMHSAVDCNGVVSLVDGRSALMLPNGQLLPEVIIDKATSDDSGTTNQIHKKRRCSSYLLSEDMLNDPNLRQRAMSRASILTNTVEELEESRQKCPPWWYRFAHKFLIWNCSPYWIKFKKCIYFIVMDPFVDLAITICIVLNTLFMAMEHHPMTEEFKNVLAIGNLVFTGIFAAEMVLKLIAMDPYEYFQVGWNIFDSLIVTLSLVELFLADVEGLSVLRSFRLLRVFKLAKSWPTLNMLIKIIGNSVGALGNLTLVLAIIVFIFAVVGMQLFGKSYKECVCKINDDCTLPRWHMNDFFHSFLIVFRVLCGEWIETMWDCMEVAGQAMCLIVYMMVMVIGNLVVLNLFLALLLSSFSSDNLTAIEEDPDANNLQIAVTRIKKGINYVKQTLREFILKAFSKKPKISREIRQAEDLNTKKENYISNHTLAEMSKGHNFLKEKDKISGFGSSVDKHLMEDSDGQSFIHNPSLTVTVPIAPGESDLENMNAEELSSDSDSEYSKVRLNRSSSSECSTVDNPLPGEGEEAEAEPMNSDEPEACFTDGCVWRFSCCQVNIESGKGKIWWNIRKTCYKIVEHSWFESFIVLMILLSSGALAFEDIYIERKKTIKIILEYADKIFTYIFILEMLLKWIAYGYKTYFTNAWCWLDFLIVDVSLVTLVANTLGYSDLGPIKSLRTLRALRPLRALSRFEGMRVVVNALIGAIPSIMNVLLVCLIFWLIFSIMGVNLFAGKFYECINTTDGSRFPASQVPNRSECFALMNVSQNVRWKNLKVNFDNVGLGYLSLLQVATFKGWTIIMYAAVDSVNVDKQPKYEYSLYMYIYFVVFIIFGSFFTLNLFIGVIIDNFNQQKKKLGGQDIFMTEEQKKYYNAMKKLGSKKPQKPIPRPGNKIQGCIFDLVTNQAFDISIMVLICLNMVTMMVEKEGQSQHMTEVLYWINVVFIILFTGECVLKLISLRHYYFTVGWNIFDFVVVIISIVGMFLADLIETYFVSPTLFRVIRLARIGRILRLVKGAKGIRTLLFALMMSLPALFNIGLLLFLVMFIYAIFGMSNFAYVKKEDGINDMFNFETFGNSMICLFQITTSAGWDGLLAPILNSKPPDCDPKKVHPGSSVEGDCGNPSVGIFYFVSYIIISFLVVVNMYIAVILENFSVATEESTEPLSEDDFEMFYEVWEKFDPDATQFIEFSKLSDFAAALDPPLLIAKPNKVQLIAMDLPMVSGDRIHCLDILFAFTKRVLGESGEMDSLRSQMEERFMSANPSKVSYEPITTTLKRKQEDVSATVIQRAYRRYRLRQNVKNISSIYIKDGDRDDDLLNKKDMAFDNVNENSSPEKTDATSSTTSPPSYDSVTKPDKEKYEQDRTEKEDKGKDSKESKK
assay-name: in-vitro Nav 1.7 PX (IC50)
Assay type: cell-based
condition-set: in-vitro Nav 1.7 PX data
Lab note: cut-off is 40 nM. Strictly less in IC50 is satisfied. Exactly 40 nM or more is not satisfied.

compound	group-label
COc1cc(-c2cc(OC)c(-n3c(=O)ccc4cc(S(=O)(=O)Nc5cc(C)ncn5)ccc43)cc2F)ccc1F	not satisfied
COc1cc(-c2cccc(OC)c2C)c(F)cc1-n1c(=O)ccc2cc(S(=O)(=O)Nc3ccon3)ccc21	not satisfied
COc1nc(-c2ccc(Cl)c(C)c2)c(Cl)cc1-n1c(=O)ccc2cc(S(=O)(=O)Nc3ccon3)ccc21	not satisfied
COc1ccc(F)c(-c2cc(OC)c(-n3c(=O)ccc4cc(S(=O)(=O)Nc5ncccn5)ccc43)cc2C)c1	not satisfied
COc1cc(CC2C[C@@H]3CC[C@@H]2C3)c(F)cc1-n1c(=O)ccc2cc(S(=O)(=O)Nc3ccon3)ccc21 (some centres unmarked)	satisfied
COc1cc(C#CC(F)(F)F)c(F)cc1-n1c(=O)ccc2cc(S(=O)(=O)Nc3ccon3)ccc21	not satisfied
COc1cccc(-c2ccc(OC)c(-n3c(=O)ccc4cc(S(=O)(=O)Nc5ccon5)ccc43)c2)c1	not satisfied
COc1cc(-c2cc(OC)c(-n3c(=O)ccc4cc(S(=O)(=O)Nc5ccon5)ccc43)cc2F)ccc1F	satisfied
COc1cc(-c2cccc(C(F)(F)F)c2)c(F)cc1-n1c(=O)ccc2cc(S(=O)(=O)Nc3ncc(F)cn3)ccc21	satisfied
COc1cc(C2CCCCC2)c(F)cc1-n1c(=O)ccc2cc(S(=O)(=O)Nc3ccon3)ccc21	satisfied
COc1cc(-c2ccc(C3CC3)cc2)c(F)cc1-n1c(=O)ccc2cc(S(=O)(=O)Nc3ccon3)ccc21	satisfied
COc1cc(-c2ccccc2F)c(F)cc1-n1c(=O)ccc2cc(S(=O)(=O)Nc3ccon3)ccc21	not satisfied
COc1ccnc(-c2cc(OC)c(-n3c(=O)ccc4cc(S(=O)(=O)Nc5ccon5)ccc43)cc2F)n1	not satisfied
COc1cc(-c2cc(F)cc(Cl)c2)c(F)cc1-n1c(=O)ccc2cc(S(=O)(=O)Nc3cc(C)ncn3)ccc21	satisfied

###

system-name: Nav 1.7 (Homo sapiens (Human), UniProt Q15858)
assay-name: in-vitro Nav 1.7 PX (IC50)
Format: cell-based
condition-set: in-vitro Nav 1.7 PX data
pIC50: −log10 of the molar value.
Outcome: TRUE for pIC50 of at least 7; FALSE for anything lower.

molecule	system-name	group-label
COc1cc(-c2ccnc(OC)c2Cl)c(F)cc1-n1c(=O)ccc2cc(S(=O)(=O)Nc3ccon3)ccc21 [Example 745]	Nav 1.7 (Homo sapiens (Human), UniProt Q15858)	TRUE
COc1cc(-c2ccc(F)c(F)c2)c(F)cc1-n1c(=O)ccc2cc(S(=O)(=O)Nc3ncccn3)ccc21 [Example 935]	Nav 1.7 (Homo sapiens (Human), UniProt Q15858)	TRUE
COc1ccc(-c2cc(OC)c(-n3c(=O)ccc4cc(S(=O)(=O)Nc5ccon5)ccc43)cc2F)cc1F [Example 705]	Nav 1.7 (Homo sapiens (Human), UniProt Q15858)	TRUE
COc1cc(-c2cccc(F)c2)ncc1-n1c(=O)ccc2cc(S(=O)(=O)Nc3ccon3)ccc21 (atropisomer, axis not shown; (P)) [Example 602]	Nav 1.7 (Homo sapiens (Human), UniProt Q15858)	FALSE
CCc1cccc(-c2ccc(-n3c(=O)ccc4cc(S(=O)(=O)Nc5ccon5)ccc43)c(OC)c2)c1 [Example 810]	Nav 1.7 (Homo sapiens (Human), UniProt Q15858)	TRUE

Where these numbers come from: patent US9212182B2
